experiment: Selectivity index, ratio of CC50 for human THP-1 cells to MIC for Staphylococcus aureus MTCC 96; assay type: toxicity
Measured quantity: selectivity ratio
Output: the number by itself.

Recorded results for 6 compounds are shown here.
Input line: Supply reported selectivity ratio belonging to this compound: COc1ccc(-n2cc(COc3ccc(/C=N/Nc4nc(-c5cc6ccccc6oc5=O)cs4)cc3)nn2)cc1
Output line: 2.58

Input line: Supply reported selectivity ratio belonging to this compound: COc1ccc(-n2cc(COc3ccc(/C=N/Nc4nc(-c5ccc(C)cc5)cs4)cc3)nn2)cc1
Output line: 2.57

Input line: Supply reported selectivity ratio belonging to this compound: COc1ccc(-n2cc(COc3ccc(/C=N/Nc4nc(-c5cc6cccc(OC)c6oc5=O)cs4)cc3)nn2)cc1
Output line: 9.28

Input line: Supply reported selectivity ratio belonging to this compound: COc1ccc(-n2cc(COc3ccc(/C=N/Nc4nc(-c5cc6cc(Br)cc(OC)c6oc5=O)cs4)cc3)nn2)cc1
Output line: 5.14

Input line: Supply reported selectivity ratio belonging to this compound: COc1ccc(-n2cc(COc3ccc(/C=N/Nc4nc(-c5ccc(Br)cc5)cs4)cc3)nn2)cc1
Output line: 0.16

Input line: Supply reported selectivity ratio belonging to this compound: COc1ccc(-n2cc(COc3ccc(/C=N/Nc4nc(-c5ccc(-c6ccccc6)cc5)cs4)cc3)nn2)cc1
Output line: 2.58

Others:
Input line: Supply reported selectivity ratio belonging to this compound: COc1ccc(-n2cc(COc3ccc(/C=N/Nc4nc(-c5ccc([N+](=O)[O-])cc5)cs4)cc3)nn2)cc1
Output line: 2.58

Input line: Supply reported selectivity ratio belonging to this compound: COc1ccc(-n2cc(COc3ccc(/C=N/Nc4nc(-c5ccc(Cl)cc5)cs4)cc3)nn2)cc1
Output line: 2.58

Input line: Supply reported selectivity ratio belonging to this compound: COc1ccc(-c2csc(N/N=C/c3ccc(OCc4cn(-c5ccc(OC)cc5)nn4)cc3)n2)cc1
Output line: 5.13

Input line: Supply reported selectivity ratio belonging to this compound: COc1ccc(-n2cc(COc3ccc(/C=N/Nc4nc(-c5cc6c(ccc7ccccc76)oc5=O)cs4)cc3)nn2)cc1
Output line: 5.12

----------
test system: Staphylococcus aureus; assay: Inhibition of biofilm formation in Staphylococcus aureus […] incubated for 24 hrs by crystal violet staining based microtiter plate method; format: functional, organism-based
Measured quantity: IC50

Input line: Supply reported IC50 belonging to this compound: COc1ccc(-n2cc(COc3ccc(/C=N/Nc4nc(-c5cc6ccccc6oc5=O)cs4)cc3)nn2)cc1
Output line: Not Active

Input line: Supply reported IC50 belonging to this compound: COc1ccc(-n2cc(COc3ccc(/C=N/Nc4nc(-c5cc6cc(Br)cc(Br)c6oc5=O)cs4)cc3)nn2)cc1
Output line: Not Active

Input line: Supply reported IC50 belonging to this compound: COc1ccc(-n2cc(COc3ccc(/C=N/Nc4nc(-c5cc6cc(Cl)cc(Cl)c6oc5=O)cs4)cc3)nn2)cc1
Output line: Not Active

----------
system: Staphylococcus aureus; test: Antibacterial activity against Staphylococcus aureus MLS16 MTCC 2940 assessed as inhibition of bacterial growth by microtiter broth dilution method; format: functional
Some molecules, each annotated with its measured MIC.

Input line: Supply reported MIC belonging to this molecule: CCOc1cc(Br)cc2cc(-c3csc(N/N=C/c4ccc(OCc5cn(-c6ccc(OC)cc6)nn5)cc4)n3)c(=O)oc12
Output line: > 186 µM

Input line: Supply reported MIC belonging to this molecule: COc1ccc(-n2cc(COc3ccc(/C=N/Nc4nc(-c5cc6c(ccc7ccccc76)oc5=O)cs4)cc3)nn2)cc1
Output line: > 208 µM

Input line: Supply reported MIC belonging to this molecule: COc1ccc(-n2cc(COc3ccc(/C=N/Nc4nc(-c5ccc(Br)cc5)cs4)cc3)nn2)cc1
Output line: > 223 µM

Input line: Supply reported MIC belonging to this molecule: COc1ccc(-n2cc(COc3ccc(/C=N/Nc4nc(-c5ccc([N+](=O)[O-])cc5)cs4)cc3)nn2)cc1
Output line: > 237 µM

Input line: Supply reported MIC belonging to this molecule: CCOc1cccc2cc(-c3csc(N/N=C/c4ccc(OCc5cn(-c6ccc(OC)cc6)nn5)cc4)n3)c(=O)oc12
Output line: > 210 µM

----------
tested on: Micrococcus luteus; assay: Bactericidal activity against Micrococcus luteus MTCC 2470; type: functional
Measured quantity: MBC

Recorded results for 3 compounds are shown here.
Input line: Supply reported MBC belonging to this compound: COc1ccc(-n2cc(COc3ccc(/C=N/Nc4nc(-c5cc6cc(Br)cc(OC)c6oc5=O)cs4)cc3)nn2)cc1
Output line: 11.8 µM

Input line: Supply reported MBC belonging to this compound: COc1ccc(-n2cc(COc3ccc(/C=N/Nc4nc(-c5cc6ccccc6oc5=O)cs4)cc3)nn2)cc1
Output line: 14.1 µM

Input line: Supply reported MBC belonging to this compound: COc1ccc(-n2cc(COc3ccc(/C=N/Nc4nc(-c5cc6cc(Br)cc(Br)c6oc5=O)cs4)cc3)nn2)cc1
Output line: 11 µM

Query compound follows.
Input line: Supply reported MBC belonging to this compound: COc1ccc(-n2cc(COc3ccc(/C=N/Nc4nc(-c5ccc(Br)cc5)cs4)cc3)nn2)cc1
Output line: 27.7 µM

----------
Some compounds, each annotated with its measured MIC.
tested on: Escherichia coli; experiment: Antibacterial activity against Escherichia coli MTCC 739 assessed as inhibition of bacterial growth by microtiter broth dilution method; assay type: functional

Recorded results for 2 compounds are shown here.
Input line: Supply reported MIC belonging to this compound: CCOc1cc(Br)cc2cc(-c3csc(N/N=C/c4ccc(OCc5cn(-c6ccc(OC)cc6)nn5)cc4)n3)c(=O)oc12
Output line: > 186 µM

Input line: Supply reported MIC belonging to this compound: COc1ccc(-n2cc(COc3ccc(/C=N/Nc4nc(-c5ccc(F)cc5)cs4)cc3)nn2)cc1
Output line: > 223 µM

Others:
Input line: Supply reported MIC belonging to this compound: O=C(O)c1cn(C2CC2)c2cc(N3CCNCC3)c(F)cc2c1=O [CIPROFLOXACIN]
Output line: 2.7 µM

Input line: Supply reported MIC belonging to this compound: COc1ccc(-n2cc(COc3ccc(/C=N/Nc4nc(-c5ccccc5)cs4)cc3)nn2)cc1
Output line: > 259 µM

Input line: Supply reported MIC belonging to this compound: COc1ccc(-n2cc(COc3ccc(/C=N/Nc4nc(-c5cc6cc(Cl)cc(Cl)c6oc5=O)cs4)cc3)nn2)cc1
Output line: > 202 µM

Input line: Supply reported MIC belonging to this compound: COc1ccc(-n2cc(COc3ccc(/C=N/Nc4nc(-c5ccc(C)cc5)cs4)cc3)nn2)cc1
Output line: > 252 µM

Input line: Supply reported MIC belonging to this compound: CCOc1cccc2cc(-c3csc(N/N=C/c4ccc(OCc5cn(-c6ccc(OC)cc6)nn5)cc4)n3)c(=O)oc12
Output line: > 210 µM

Input line: Supply reported MIC belonging to this compound: COc1ccc(-n2cc(COc3ccc(/C=N/Nc4nc(-c5ccc(Cl)cc5)cs4)cc3)nn2)cc1
Output line: > 242 µM

Input line: Supply reported MIC belonging to this compound: COc1ccc(-n2cc(COc3ccc(/C=N/Nc4nc(-c5cc6c(ccc7ccccc76)oc5=O)cs4)cc3)nn2)cc1
Output line: 6.5 µM

Input line: Supply reported MIC belonging to this compound: COc1ccc(-n2cc(COc3ccc(/C=N/Nc4nc(-c5ccc(-c6ccccc6)cc5)cs4)cc3)nn2)cc1
Output line: > 224 µM

----------
system: Escherichia coli; experiment: Inhibition of biofilm formation in Escherichia coli MTCC 739 incubated for 24 hrs by crystal violet staining based microtiter plate method; assay type: functional, organism-based; conditions: Escherichia coli, MTCC 739, 24 h; read-out: IC50
Some compounds, each annotated with its measured IC50.
State just the number; it will be interpreted in µM.

Input line: Supply reported IC50 belonging to this compound: COc1ccc(-n2cc(COc3ccc(/C=N/Nc4nc(-c5cc6cccc(OC)c6oc5=O)cs4)cc3)nn2)cc1
Output line: 68

Input line: Supply reported IC50 belonging to this compound: O=C(O)c1cn(C2CC2)c2cc(N3CCNCC3)c(F)cc2c1=O [CIPROFLOXACIN]
Output line: 0.6

Input line: Supply reported IC50 belonging to this compound: COc1ccc(-n2cc(COc3ccc(/C=N/Nc4nc(-c5cc6ccccc6oc5=O)cs4)cc3)nn2)cc1
Output line: 31.3

Input line: Supply reported IC50 belonging to this compound: COc1ccc(-n2cc(COc3ccc(/C=N/Nc4nc(-c5cc6c(ccc7ccccc76)oc5=O)cs4)cc3)nn2)cc1
Output line: 127

Others:
Input line: Supply reported IC50 belonging to this compound: COc1ccc(-n2cc(COc3ccc(/C=N/Nc4nc(-c5cc6cc(Br)cc(OC)c6oc5=O)cs4)cc3)nn2)cc1
Output line: 21.9
